# tested.system: Heme oxygenase (Pseudomonas aeruginosa)
# Sequence (O69002 whole entry): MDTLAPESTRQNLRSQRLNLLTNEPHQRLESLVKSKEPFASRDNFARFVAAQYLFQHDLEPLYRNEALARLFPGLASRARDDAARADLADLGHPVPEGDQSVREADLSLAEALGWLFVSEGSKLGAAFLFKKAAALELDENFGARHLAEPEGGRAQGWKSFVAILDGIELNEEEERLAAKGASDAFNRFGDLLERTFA
# assay.remarks: Binding affinity to Pseudomonas aeruginosa HemO by intrinsic fluorescence quenching method
Can you tell me Kd for the items I'm about to list?
Quick reminder: number only, in µM, skip the unit.

Qu. Recall and state the measured Kd for Cl.NC(N)=N/N=C/c1ccc(-c2ccccc2)cc1 .
Ans. 6.7

Qu. Recall and state the measured Kd for Cl.N=C(N)N/N=C/c1ccccc1F .
Ans. 11

Qu. Recall and state the measured Kd for Cl.NC(N)=N/N=C/c1cccc(Br)c1O .
Ans. 8

Qu. Recall and state the measured Kd for Cl.N=C(N)N/N=C/c1cccc2ccccc12 .
Ans. 12

Qu. Recall and state the measured Kd for Cl.N=C(N)N/N=C/c1ccc(Cl)cc1 .
Ans. 7

Qu. Recall and state the measured Kd for Cl.N=C(N)N/N=C/c1cccc(Cl)c1 .
Ans. 8.4

Qu. Recall and state the measured Kd for CN(C)c1ccc(/C=N/NC(=N)N)cc1.Cl .
Ans. 8.8

Qu. Recall and state the measured Kd for COc1ccc(/C=N/NC(=N)N)cc1.Cl .
Ans. 7.8

Qu. Recall and state the measured Kd for Cl.N=C(N)N/N=C/c1ccc(Br)cc1 .
Ans. 15

Qu. Recall and state the measured Kd for CC(C)c1ccc(/C=N/NC(=N)N)cc1.Cl .
Ans. 5.7

Qu. Recall and state the measured Kd for Cl.NC(N)=N/N=C/c1cccc(Br)c1 .
Ans. 12

Qu. Recall and state the measured Kd for Cl.N=C(N)N/N=C/c1ccccc1O .
Ans. 9.2

Qu. Recall and state the measured Kd for Cl.NC(N)=N/N=C/c1cccc(F)c1 .
Ans. 12

Qu. Recall and state the measured Kd for Cl.NC(N)=N/N=C/c1ccc(Cl)c(Cl)c1 .
Ans. 8.4

Qu. Recall and state the measured Kd for N=C(N)N/N=C/c1ccccc1Br .
Ans. 6.7

Qu. Recall and state the measured Kd for Cl.NC(N)=N/N=C/c1cccc(O)c1 .
Ans. 21

Qu. Recall and state the measured Kd for Cl.N=C(N)N/N=C/c1ccc(F)cc1 .
Ans. 14

Qu. Recall and state the measured Kd for Cl.N=C(N)N/N=C/c1ccc([N+](=O)[O-])cc1 .
Ans. 6.2

Qu. Recall and state the measured Kd for Cl.NC(N)=N/N=C/c1cc(O)cc(O)c1 .
Ans. 8

Qu. Recall and state the measured Kd for Cl.NC(N)=N/N=C/c1ccc(O)cc1 .
Ans. 4.8
